Target: T1, Pro-C1s
T1 construct: also called purified pro-C1s protein
T1 chain: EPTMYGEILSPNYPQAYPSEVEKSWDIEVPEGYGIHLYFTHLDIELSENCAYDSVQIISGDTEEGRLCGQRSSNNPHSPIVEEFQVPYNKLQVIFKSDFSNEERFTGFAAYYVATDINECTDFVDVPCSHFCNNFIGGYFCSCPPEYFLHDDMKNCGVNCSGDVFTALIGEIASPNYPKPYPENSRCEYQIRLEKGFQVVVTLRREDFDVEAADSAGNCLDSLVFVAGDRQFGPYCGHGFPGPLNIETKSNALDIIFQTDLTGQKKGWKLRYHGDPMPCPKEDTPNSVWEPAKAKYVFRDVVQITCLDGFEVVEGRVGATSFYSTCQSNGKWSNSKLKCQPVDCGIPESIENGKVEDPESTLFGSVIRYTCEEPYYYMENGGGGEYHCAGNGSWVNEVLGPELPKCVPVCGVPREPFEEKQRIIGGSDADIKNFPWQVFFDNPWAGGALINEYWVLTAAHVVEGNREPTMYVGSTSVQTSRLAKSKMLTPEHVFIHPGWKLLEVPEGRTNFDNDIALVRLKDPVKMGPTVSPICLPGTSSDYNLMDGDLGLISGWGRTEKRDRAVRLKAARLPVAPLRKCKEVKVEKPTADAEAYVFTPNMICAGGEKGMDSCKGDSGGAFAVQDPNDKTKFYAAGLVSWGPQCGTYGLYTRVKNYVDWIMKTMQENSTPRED
Test: bio-layer interferometry (BLI), kinetic analysis
value-type: koff (s⁻¹)

{"columns": ["binder", "value-type", "endpoint-result"],
 "data": [
  ["antibody IPN-M2 (antibody, V domains shown, Mouse monoclonal antibody (NZBW hybridoma); Same VL and VH as IPN-M8) VH: EVKLQQSGAELVRPGASVKLSCTASGFNIKDDYIHWVKQRPEQGLEWIGRIDPADGHTKYAPKFQVKATITADTSSNTAYLQLSSLTSEDTAVYYCARYGYGREVFDYWGQGTTLTVSS VL: DIVLTQSPASLAVSLGQRATISCKASQSVDYDGDSYMNWYQQKTGQPPKILIYDASNLESGIPARFSGSGSGTDFTLNIHPVEEEDAAIYYCQQSNEDPWTFGGGTKLEIK", "koff", 0.000197]
]}

Ref: patent US20200079876A1
